type: in vivo, Dutch Belted rabbits; conditions: Dutch Belted, rabbit, RPE-choroid-sclera complex (RCS), sc, 0.1 mg
Readout: Tmax (h)

INSERT INTO assay_data (sample_smiles, readout, observed_value) VALUES
  ('CNC(=O)c1ccccc1Sc1ccc2c(/C=C/c3ccccn3)n[nH]c2c1', 'Tmax', 24);

* * *

type: in vivo, Dutch Belted rabbits; details: Dutch Belted, rabbit, RPE-choroid-sclera complex (RCS), sc, 0.1 mg
Readout: Cmax (ng/g)

INSERT INTO measurements (molecule, unit_info, observed_value) VALUES
  ('CNC(=O)c1ccccc1Sc1ccc2c(/C=C/c3ccccn3)n[nH]c2c1 [Axitinib]', 'ng/g', 232000);

* * *

type: in vivo, rabbits; conditions: rabbit, RCS, sc, 1.05 mg/eye
Readout: concentration at 182 day (ng/g)

INSERT INTO results (molecule, unit_info, observed_value) VALUES
  ('CNC(=O)c1ccccc1Sc1ccc2c(/C=C/c3ccccn3)n[nH]c2c1 [Axitinib]', 'ng/g', 199000);

* * *

format: in vivo, Dutch Belted rabbits; settings: Dutch Belted, rabbit, RPE-choroid-sclera complex (RCS), sc, 4 mg
Readout: Cmax (ng/g)

INSERT INTO measurements (compound, observed_value) VALUES
  ('CNC(=O)c1ccccc1Sc1ccc2c(/C=C/c3ccccn3)n[nH]c2c1 [Axitinib]', '2.2e+07');

* * *

format: in vivo, Dutch Belted rabbits; conditions: Dutch Belted, rabbit, RPE-choroid-sclera complex (RCS), sc, 4 mg/eye
Readout: half-life (days)

INSERT INTO measurements (molecule, readout, observed_value) VALUES
  ('CNC(=O)c1ccccc1Sc1ccc2c(/C=C/c3ccccn3)n[nH]c2c1 [Axitinib]', 'half-life', 143);

* * *

assay type: in vivo, Dutch Belted rabbits; conditions: Dutch Belted, rabbit, vitreous humor, sc, 0.1 mg
Readout: Cmax (ng/mL)

INSERT INTO results (compound, observed_value) VALUES
  ('CNC(=O)c1ccccc1Sc1ccc2c(/C=C/c3ccccn3)n[nH]c2c1 [Axitinib]', 4.58);

* * *

format: in vivo, Dutch Belted rabbits; conditions: Dutch Belted, rabbit, vitreous humor, sc, 0.1 mg
Readout: Tmax (h)

INSERT INTO assay_data (sample_smiles, observed_value) VALUES
  ('CNC(=O)c1ccccc1Sc1ccc2c(/C=C/c3ccccn3)n[nH]c2c1', 24);

* * *

assay type: in vivo, Dutch Belted rabbits; conditions: Dutch Belted, rabbit, RPE-choroid-sclera complex (RCS), sc, 0.03 mg
Readout: half-life (days)

INSERT INTO measurements (sample_smiles, observed_value) VALUES
  ('CNC(=O)c1ccccc1Sc1ccc2c(/C=C/c3ccccn3)n[nH]c2c1', 11);

* * *

type: in vivo, Dutch Belted rabbits; details: Dutch Belted, rabbit, retina, sc, 4 mg/eye
Readout: concentration at 91 day (ng/g)

INSERT INTO results (sample_smiles, readout, observed_value) VALUES
  ('CNC(=O)c1ccccc1Sc1ccc2c(/C=C/c3ccccn3)n[nH]c2c1', 'concentration at 91 day', 305000);

* * *

type: in vivo, Dutch Belted rabbits; settings: Dutch Belted, rabbit, retina, sc, 0.03 mg
Readout: Tmax (h)

INSERT INTO assay_data (molecule, readout, observed_value) VALUES
  ('CNC(=O)c1ccccc1Sc1ccc2c(/C=C/c3ccccn3)n[nH]c2c1 [Axitinib]', 'Tmax', 24);

* * *

assay type: in vivo, Dutch Belted rabbits; settings: Dutch Belted, rabbit, RPE-choroid-sclera complex (RCS), sc, 0.1 mg
Readout: half-life (days)

INSERT INTO assay_data (sample_smiles, observed_value) VALUES
  ('CNC(=O)c1ccccc1Sc1ccc2c(/C=C/c3ccccn3)n[nH]c2c1', 16);

* * *

type: in vivo, New Zealand White rabbits; details: New Zealand White, rabbit, posterior eye cup (PEC), topical or ocular, 1 mg
Readout: Cmax (ng/g)

INSERT INTO measurements (compound, observed_value) VALUES
  ('CNC(=O)c1ccccc1Sc1ccc2c(/C=C/c3ccccn3)n[nH]c2c1 [Axitinib]', 124000);

* * *

type: in vivo, New Zealand White rabbits; conditions: New Zealand White, rabbit, posterior eye cup (PEC), sc, 1 mg
Readout: Cmax (ng/g)

INSERT INTO assay_data (sample_smiles, observed_value) VALUES
  ('CNC(=O)c1ccccc1Sc1ccc2c(/C=C/c3ccccn3)n[nH]c2c1', 799000);

* * *

assay type: in vivo, Dutch Belted rabbits; conditions: Dutch Belted, rabbit, vitreous humor, sc, 4 mg
Readout: Tmax (h)

INSERT INTO assay_data (compound, observed_value) VALUES
  ('CNC(=O)c1ccccc1Sc1ccc2c(/C=C/c3ccccn3)n[nH]c2c1 [Axitinib]', 96);

* * *

assay type: in vivo, New Zealand White rabbits; details: New Zealand White, rabbit, vitreous humor, topical or ocular, 1 mg
Readout: Tmax (min)

INSERT INTO assay_data (molecule, readout, observed_value) VALUES
  ('CNC(=O)c1ccccc1Sc1ccc2c(/C=C/c3ccccn3)n[nH]c2c1 [Axitinib]', 'Tmax', 4.8);

* * *

type: in vivo, New Zealand White rabbits; conditions: New Zealand White, rabbit, posterior eye cup (PEC), sc, 1 mg
Readout: Tmax (h)

INSERT INTO assay_data (compound, readout, observed_value) VALUES
  ('CNC(=O)c1ccccc1Sc1ccc2c(/C=C/c3ccccn3)n[nH]c2c1 [Axitinib]', 'Tmax', 6);

* * *

format: in vivo, New Zealand White rabbits; settings: New Zealand White, rabbit, vitreous humor, topical or ocular, 1 mg
Readout: Cmax

INSERT INTO measurements (sample_smiles, observed_value) VALUES
  ('CNC(=O)c1ccccc1Sc1ccc2c(/C=C/c3ccccn3)n[nH]c2c1', '1.28e+06 ng/g');

* * *

type: in vivo, Dutch Belted rabbits; conditions: Dutch Belted, rabbit, vitreous humor, sc, 0.03 mg
Readout: Tmax (h)

INSERT INTO results (sample_smiles, observed_value) VALUES
  ('CNC(=O)c1ccccc1Sc1ccc2c(/C=C/c3ccccn3)n[nH]c2c1', 24);

* * *

type: in vivo, New Zealand White rabbits; conditions: New Zealand White, rabbit, vitreous humor, sc, 1 mg
Readout: Tmax (h)

INSERT INTO results (sample_smiles, readout, observed_value) VALUES
  ('CNC(=O)c1ccccc1Sc1ccc2c(/C=C/c3ccccn3)n[nH]c2c1', 'Tmax', 168);

* * *

format: in vivo, Dutch Belted rabbits; conditions: Dutch Belted, rabbit, vitreous humor, sc, 4 mg
Readout: Cmax (ng/mL)

INSERT INTO assay_data (sample_smiles, unit_info, observed_value) VALUES
  ('CNC(=O)c1ccccc1Sc1ccc2c(/C=C/c3ccccn3)n[nH]c2c1', 'ng/mL', 858);

* * *

type: in vivo, New Zealand White rabbits; conditions: New Zealand White, rabbit, vitreous humor, sc, 1 mg
Readout: Cmax (ng/g)

INSERT INTO assay_data (sample_smiles, observed_value) VALUES
  ('CNC(=O)c1ccccc1Sc1ccc2c(/C=C/c3ccccn3)n[nH]c2c1', 3670);

* * *

type: in vivo, Dutch Belted rabbits; conditions: Dutch Belted, rabbit, retina, sc, 0.03 mg
Readout: Cmax (ng/g)

INSERT INTO assay_data (compound, readout, observed_value) VALUES
  ('CNC(=O)c1ccccc1Sc1ccc2c(/C=C/c3ccccn3)n[nH]c2c1 [Axitinib]', 'Cmax', 4480);

* * *

type: in vivo, Dutch Belted rabbits; conditions: Dutch Belted, rabbit, retina, sc, 4 mg
Readout: Cmax (ng/g)

INSERT INTO assay_data (compound, readout, observed_value) VALUES
  ('CNC(=O)c1ccccc1Sc1ccc2c(/C=C/c3ccccn3)n[nH]c2c1 [Axitinib]', 'Cmax', 325000);
